Source of measurements: ChEMBL document CHEMBL3739389

Record form. Attribute: solubility kinetic at 200 µM. Fill in for each entry.
# TEST_DESCRIPTION: Kinetic solubility of the compound in phosphate buffer at pH 1 at 200 uM
# Assay type: physicochemical
# PROTOCOL_CONDITIONS: read-out: Kinetic_solubility
Numbers only, in µM.

Examples with their reported solubility kinetic at 200 µM follow.
[[record]]
molecular_string = "COc1ccc2c(=O)c(C)c(-c3ccnc(-c4ccc(OC(F)(F)F)cc4)c3)[nH]c2c1"
attribute_measured = "solubility kinetic at 200 µM"
recorded_measurement = 120

[[record]]
molecular_string = "COc1ccc2c(=O)c(C)c(-c3cncc(-c4ccc(OC(F)(F)F)cc4)c3)[nH]c2c1"
attribute_measured = "solubility kinetic at 200 µM"
recorded_measurement = 7.8

[[record]]
molecular_string = "Cc1c(-c2cncc(-c3ccc(OC(F)(F)F)cc3)c2)[nH]c2ccccc2c1=O"
attribute_measured = "solubility kinetic at 200 µM"
recorded_measurement = 140

[[record]]
molecular_string = "Cc1c(-c2ccc(-c3ccc(OC(F)(F)F)cc3)nc2)[nH]c2ccccc2c1=O"
attribute_measured = "solubility kinetic at 200 µM"
recorded_measurement = 3.2

[[record]]
molecular_string = "COc1ccc2c(=O)c(C)c(-c3ccc(-c4ccc(OC(F)(F)F)cc4)nc3)[nH]c2c1"
attribute_measured = "solubility kinetic at 200 µM"
recorded_measurement = 2.6

[[record]]
molecular_string = "COc1ccc2c(=O)c(C)c(-c3cncc(-c4ccc(Cl)c(Cl)c4)c3)[nH]c2c1"
attribute_measured = "solubility kinetic at 200 µM"
recorded_measurement = 15


Ask: Sample Cc1c(-c2ccnc(-c3ccc(OC(F)(F)F)cc3)c2)[nH]c2ccccc2c1=O — what was its solubility kinetic at 200 µM?
Reply: 79
